Target under test: Melanin-concentrating hormone receptor 1 (Mus musculus) (UniProt Q8JZL2)
Sequence (Q8JZL2 whole entry): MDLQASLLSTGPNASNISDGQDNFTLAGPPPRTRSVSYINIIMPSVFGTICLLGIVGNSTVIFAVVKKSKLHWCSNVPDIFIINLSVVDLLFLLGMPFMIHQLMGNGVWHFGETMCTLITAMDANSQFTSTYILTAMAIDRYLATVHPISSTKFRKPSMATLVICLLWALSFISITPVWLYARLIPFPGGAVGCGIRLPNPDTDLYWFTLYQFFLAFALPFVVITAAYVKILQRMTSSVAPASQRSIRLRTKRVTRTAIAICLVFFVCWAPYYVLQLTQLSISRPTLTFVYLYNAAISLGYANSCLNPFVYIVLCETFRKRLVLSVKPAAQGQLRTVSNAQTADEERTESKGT
Assay explanation: Ex vivo inhibition of MCH-ADO binding to Melanin concentrating hormone receptor 1 in mice (n=3) 6 hr after 30 mg/kg peroral dose
Format: organism-based
Design: dose 30 mg/kg
Experimental parameters: at 30 mg/kg
Please use Fulfilled whenever inhibition is not below 80%, and Not fulfilled whenever it is.

Look over these answered cases.
Record smiles	Group
N#Cc1cccc([C@]23CC[C@@H](N(CCN4CC[C@@H](O)C4)C(=O)Nc4ccc(F)c(Cl)c4)C[C@H]2C3)c1	Not fulfilled
CN1CCN(CCCCN(C(=O)Nc2ccc(F)c(C(F)(F)F)c2)[C@@H]2CC[C@]3(c4ccc(C#N)cc4)C[C@H]23)CC1	Fulfilled

Given the entry `N#Cc1ccc([C@]23CC[C@@H](N(CCN4CCCC4)C(=O)Nc4cc(Cl)cc(Cl)c4)[C@H]2C3)cc1` , answer whether its inhibition meets or surpasses 80%.
Not fulfilled

Given the entry `N#Cc1cccc([C@@]23CC[C@@H](N(CCN4CC[C@@H](O)C4)C(=O)Nc4ccc(F)c(Cl)c4)C[C@@H]2C3)c1` , answer whether its inhibition meets or surpasses 80%.
Not fulfilled

* * *

Entries annotated with measured pKi
Target under test: UniProtKB Q99705
Sequence (Q99705 whole entry): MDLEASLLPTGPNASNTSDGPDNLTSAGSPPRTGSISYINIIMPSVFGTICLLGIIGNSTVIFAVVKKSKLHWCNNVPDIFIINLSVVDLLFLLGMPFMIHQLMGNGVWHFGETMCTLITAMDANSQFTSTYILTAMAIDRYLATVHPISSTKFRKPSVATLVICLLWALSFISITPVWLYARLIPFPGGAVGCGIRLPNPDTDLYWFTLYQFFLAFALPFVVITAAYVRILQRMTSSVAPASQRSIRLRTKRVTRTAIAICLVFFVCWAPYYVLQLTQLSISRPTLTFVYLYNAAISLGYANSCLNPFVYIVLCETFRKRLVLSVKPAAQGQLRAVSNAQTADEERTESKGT
# pKi = -log10(concentration in molar units)

Please review the entries below; each comes with its answer.
Molecule	Assay result
N#Cc1ccc([C@]23CC[C@@H](N(CCN4CCCC4)C(=O)Nc4cc(Cl)cc(Cl)c4)[C@H]2C3)cc1	7.74
N#Cc1cccc([C@H]2CC[C@H](N(CCN3CC[C@@H](O)C3)C(=O)Nc3ccc(F)c(C(F)(F)F)c3)CC2)c1	6.67
N#Cc1ccccc1[C@]12CC[C@@H](N(CCN3CC[C@@H](O)C3)C(=O)Nc3ccc(F)c(C(F)(F)F)c3)[C@H]1C2	8.15

Here is the next item to consider.
Which measured pKi value corresponds to N#Cc1cccc(C2=CCC(N(CCN3CCCC3)C(=O)Nc3ccc(F)c(Cl)c3)CC2)c1 (centres undefined) ?
8.52

* * *

Entries with their measured Ki, system Melanin-concentrating hormone receptor 1 (Mus musculus):
Give the number; nM is assumed, so skip it.

Please review the entries below; each comes with its answer.
Molecule	Target under test	Unit annotation	Ki
N#Cc1cccc([C@@]23CC[C@@H](N(CCN4CC[C@@H](O)C4)C(=O)Nc4ccc(F)c(Cl)c4)C[C@@H]2C3)c1	Melanin-concentrating hormone receptor 1 (Mus musculus)	nM	7.8
N#Cc1cccc([C@]23CC[C@@H](N(CCN4CC[C@@H](O)C4)C(=O)Nc4ccc(F)c(Cl)c4)C[C@H]2C3)c1	Melanin-concentrating hormone receptor 1 (Mus musculus)	nM	5.9

Notebook: pull reported Ki for Melanin-concentrating hormone receptor 1 (Mus musculus), entry N#Cc1cccc([C@]23CC[C@@H](N(CCN4CC[C@@H](O)C4)C(=O)Nc4ccc(F)c(Cl)c4)CC2C3)c1 (stereo partly drawn)
10.7

* * *

Assay explanation: Bioavailability of compound in rats (n= 3) after oral administration at 10 mpk
Assay type: ADME, organism-based
Experimental parameters: rat, in vivo, 10 mg/kg
Quantity: bioavailability
Express the reported value numerically, then name its unit.

Which measured bioavailability value corresponds to `CN1CCN(CCCCN(C(=O)Nc2ccc(F)c(C(F)(F)F)c2)[C@@H]2CC[C@]3(c4ccc(C#N)cc4)C[C@H]23)CC1` ?
27%
